Test system: PANC-1
Assay: SRB colorimetric assay of cell growth and viability, PANC-1
Type: cell-based, human
Conditions: 48 hours exposure; read-out: LC50 PANC-1

compound: C/C=C1\NC(=O)[C@H](Cc2ccccc2)NC(=O)[C@@H](C(C)C)NC(=O)[C@@H]([C@@H](C)CC)NC(=O)[C@H](NC(=O)[C@H](NC(=O)[C@H](CCCN)NC(=O)[C@H]2CCCN2C(=O)[C@H](NC(=O)[C@@H](NC(=O)[C@@H](NC(=O)[C@@H](NC(=O)CCCC(C)C)C(C)C)[C@@H](C)O)C(C)C)C(C)C)[C@@H](C)CC)[C@@H](C)OC(=O)[C@H](C(C)C)NC1=O [Compound 38, [Val^13]-KF]
targetOrSystem: PANC-1
CC50 [µM]: 0.988

compound: C/C=C1\NC(=O)[C@H](Cc2ccccc2)NC(=O)[C@@H](C(C)C)NC(=O)[C@@H]([C@@H](C)CC)NC(=O)[C@H](NC(=O)[C@H](NC(=O)[C@H](CCCN)NC(=O)[C@H]2CCCN2C(=O)[C@H](NC(=O)[C@@H](NC(=O)[C@@H](NC(=O)[C@@H](CCC(=O)O)NC(=O)CCCC(C)C)[C@@H](C)O)C(C)C)C(C)C)[C@@H](C)CC)[C@@H](C)OC(=O)[C@H](C(C)C)NC1=O [Compound 39, [D-Glu^13]-KF]
targetOrSystem: PANC-1
CC50 [µM]: 6.63

compound: C/C=C1\NC(=O)[C@H](Cc2ccccc2)NC(=O)[C@@H](C(C)C)NC(=O)[C@@H]([C@@H](C)CC)NC(=O)[C@H](NC(=O)[C@H](NC(=O)[C@H](CCCN)NC(=O)[C@H]2CCCN2C(=O)[C@H](NC(=O)[C@@H](NC(=O)[C@@H](NC(=O)CNC(=O)CCCC(C)C)[C@@H](C)O)C(C)C)C(C)C)[C@@H](C)CC)[C@@H](C)OC(=O)[C@H](C(C)C)NC1=O [Compound 33, [Gly^13]-KF]
targetOrSystem: PANC-1
CC50 [µM]: 5.04

###

System: IGROV-ET
Assay: SRB colorimetric assay of cell growth and viability, IGROV-ET
Type: cell-based, human
Conditions: 48 hours exposure; read-out: LC50 IGROV-ET
Readings of CC50 for the listed compounds
metricName: CC50

compound: C/C=C1\NC(=O)[C@H](Cc2ccccc2)NC(=O)[C@@H](C(C)C)NC(=O)[C@@H]([C@@H](C)CC)NC(=O)[C@H](NC(=O)[C@H](NC(=O)[C@H](CCCCN)NC(=O)[C@H]2CCCN2C(=O)[C@H](NC(=O)[C@@H](NC(=O)[C@@H](NC(=O)[C@H](NC(=O)CC[C@@H](C)CC)C(C)C)[C@@H](C)O)C(C)C)C(C)C)[C@@H](C)CC)[C@@H](C)OC(=O)[C@H](C(C)C)NC1=O [Compound 30, [Lys^8, (4S)-MeHex^14]-KF]
testValue: 0.637 µM
//
compound: C/C=C1\NC(=O)[C@H](Cc2ccccc2)NC(=O)[C@@H](C(C)C)NC(=O)[C@@H]([C@@H](C)CC)NC(=O)[C@H](NC(=O)[C@H](NC(=O)[C@H](CCCN)NC(=O)[C@H]2CCCN2C(=O)[C@H](NC(=O)[C@@H](NC(=O)[C@@H](NC(=O)[C@@H](CCC(=O)O)NC(=O)CCCC(C)C)[C@@H](C)O)C(C)C)C(C)C)[C@@H](C)CC)[C@@H](C)OC(=O)[C@H](C(C)C)NC1=O [Compound 39, [D-Glu^13]-KF]
testValue: 4.09 µM
//
compound: C/C=C1\NC(=O)[C@H](Cc2ccccc2)NC(=O)[C@@H](C(C)C)NC(=O)[C@@H]([C@@H](C)CC)NC(=O)[C@H](NC(=O)[C@H](NC(=O)[C@H](CCCN)NC(=O)[C@H]2CCCN2C(=O)[C@H](NC(=O)[C@@H](NC(=O)[C@@H](NC(=O)[C@H](NC(=O)CCCCCCCCCCCCCCCCCCC)C(C)C)[C@@H](C)O)C(C)C)C(C)C)[C@@H](C)CC)[C@@H](C)OC(=O)[C@H](C(C)C)NC1=O [Compound 13, [Icos^14]-KF]
testValue: 4.79 µM

###

Readings of CC50 for the listed compounds
Test system: HeLa-APL
Assay: SRB colorimetric assay of cell growth and viability, HeLa-APL
Format: cell-based, human
Settings: 48 hours exposure; read-out: LC50 HELA-APL
Where a SMILES comes first, the peptide text is derived from it. Bridges are numbered along the chain shown (N, C = ends). [ ]: non-standard residue; d: D form. The star is where a group is joined. d(aIle) = CC[C@H](C)[C@@H](N)C(=O)O; d(aThr) = C[C@@H](O)[C@@H](N)C(=O)O; Hexanoyl(5-Me) = CC(C)CCCC(=O)*; Orn = NCCC[C@H](N)C(=O)O; Dhb = C/C=C(\N)C(=O)O

compound: C/C=C1\NC(=O)[C@H](Cc2ccccc2)NC(=O)[C@@H](C(C)C)NC(=O)[C@@H]([C@@H](C)CC)NC(=O)[C@H](NC(=O)[C@H](NC(=O)[C@H](CCCN)NC(=O)[C@H]2CCCN2C(=O)[C@H](NC(=O)[C@H](CCC(=O)O)NC(=O)[C@@H](NC(=O)[C@H](NC(=O)CCCC(C)C)C(C)C)[C@@H](C)O)C(C)C)[C@@H](C)CC)[C@@H](C)OC(=O)[C@H](C(C)C)NC1=O [Compound 51, [Glu^11]-KF] ({Hexanoyl(5-Me)}-[dV]TE[dV][dP][Orn][d(aIle)][d(aThr)][d(aIle)][dV]F[Dhb]V; ester 8-C)
valueRelationSign: =
CC50 / µM: 6.63
//
compound: C/C=C1\NC(=O)[C@H](Cc2ccccc2)NC(=O)[C@@H](C(C)C)NC(=O)[C@@H]([C@@H](C)CC)NC(=O)[C@H](NC(=O)[C@H](NC(=O)[C@H](CCCN)NC(=O)[C@H]2CCCN2C(=O)[C@H](NC(=O)[C@@H](NC(=O)[C@@H](NC(=O)[C@H](NC(=O)CCCC(C)C)[C@H](C)O)[C@@H](C)O)C(C)C)C(C)C)[C@@H](C)CC)[C@@H](C)OC(=O)[C@H](C(C)C)NC1=O [Compound 41, [D-Thr^13]-KF]
valueRelationSign: =
CC50 / µM: 3.74
//
compound: C/C=C1\NC(=O)[C@H](Cc2ccccc2)NC(=O)[C@@H](C(C)C)NC(=O)[C@@H]([C@@H](C)CC)NC(=O)[C@H](NC(=O)[C@H](NC(=O)[C@H](CCCN)NC(=O)[C@H]2CCCN2C(=O)[C@H](NC(=O)[C@H](C)NC(=O)[C@@H](NC(=O)[C@H](NC(=O)CCCC(C)C)C(C)C)[C@@H](C)O)C(C)C)[C@@H](C)CC)[C@@H](C)OC(=O)[C@H](C(C)C)NC1=O [Compound 44, [Ala^11]-KF] ({Hexanoyl(5-Me)}-[dV]TA[dV][dP][Orn][d(aIle)][d(aThr)][d(aIle)][dV]F[Dhb]V; ester 8-C)
valueRelationSign: =
CC50 / µM: 6.9
//
compound: C/C=C1\NC(=O)[C@H](Cc2ccccc2)NC(=O)[C@@H](C(C)C)NC(=O)[C@@H]([C@@H](C)CC)NC(=O)[C@H](NC(=O)[C@H](NC(=O)[C@H](CCCN)NC(=O)[C@H]2CCCN2C(=O)[C@H](NC(=O)[C@@H](NC(=O)[C@H](C)NC(=O)CCCC(C)C)C(C)C)C(C)C)[C@@H](C)CC)[C@@H](C)OC(=O)[C@H](C(C)C)NC1=O [Compound 52, [Ala^12, noD-Val^13]-KF] ({Hexanoyl(5-Me)}-AV[dV][dP][Orn][d(aIle)][d(aThr)][d(aIle)][dV]F[Dhb]V; ester 7-C)
valueRelationSign: =
CC50 / µM: 7.41
//
compound: C/C=C1\NC(=O)[C@H](Cc2ccccc2)NC(=O)[C@@H](C(C)C)NC(=O)[C@@H]([C@@H](C)CC)NC(=O)[C@H](NC(=O)[C@H](NC(=O)[C@H](CCCN)NC(=O)[C@H]2CCCN2C(=O)[C@H](NC(=O)[C@@H](NC(=O)[C@@H](NC(=O)[C@H](NC(=O)C(F)(F)C(F)(F)C(F)(F)C(F)(F)C(F)(F)C(F)(F)F)C(C)C)[C@@H](C)O)C(C)C)C(C)C)[C@@H](C)CC)[C@@H](C)OC(=O)[C@H](C(C)C)NC1=O [Compound 26, [Pfh^14]-KF]
valueRelationSign: =
CC50 / µM: 3.52
//
compound: C/C=C1\NC(=O)[C@H](Cc2ccccc2)NC(=O)[C@@H](C(C)C)NC(=O)[C@@H]([C@@H](C)CC)NC(=O)[C@H](NC(=O)[C@H](NC(=O)[C@H](CCCN)NC(=O)[C@H]2CCCN2C(=O)[C@H](NC(=O)CNC(=O)[C@@H](NC(=O)[C@H](NC(=O)CCCC(C)C)C(C)C)[C@@H](C)O)C(C)C)[C@@H](C)CC)[C@@H](C)OC(=O)[C@H](C(C)C)NC1=O [Compound 42, [Gly^11]-KF] ({Hexanoyl(5-Me)}-[dV]TG[dV][dP][Orn][d(aIle)][d(aThr)][d(aIle)][dV]F[Dhb]V; ester 8-C)
valueRelationSign: =
CC50 / µM: 6.96
//
compound: C/C=C1\NC(=O)[C@H](Cc2ccccc2)NC(=O)[C@@H](C(C)C)NC(=O)[C@@H]([C@@H](C)CC)NC(=O)[C@H](NC(=O)[C@H](NC(=O)[C@H](CCCN)NC(=O)[C@H]2CCCN2C(=O)[C@H](NC(=O)[C@@H](NC(=O)[C@@H](NC(=O)[C@H](NC(=O)CCCNC(=N)N)C(C)C)[C@@H](C)O)C(C)C)C(C)C)[C@@H](C)CC)[C@@H](C)OC(=O)[C@H](C(C)C)NC1=O [Compound 29, [4-GuBut^14]-KF]
valueRelationSign: =
CC50 / µM: 6.7
//
compound: C/C=C1\NC(=O)[C@H](Cc2ccccc2)NC(=O)[C@@H](C(C)C)NC(=O)[C@@H]([C@@H](C)CC)NC(=O)[C@H](NC(=O)[C@H](NC(=O)[C@H](CCCN)NC(=O)[C@H]2CCCN2C(=O)[C@H](NC(=O)[C@@H](NC(=O)[C@@H](NC(=O)[C@@H](C)NC(=O)CCCC(C)C)[C@@H](C)O)C(C)C)C(C)C)[C@@H](C)CC)[C@@H](C)OC(=O)[C@H](C(C)C)NC1=O [Compound 34, [D-Ala^13]-KF]
valueRelationSign: =
CC50 / µM: 4.34
//
compound: C/C=C1\NC(=O)[C@H](Cc2ccccc2)NC(=O)[C@@H](C(C)C)NC(=O)[C@@H]([C@@H](C)CC)NC(=O)[C@H](NC(=O)[C@H](NC(=O)[C@H](CCCN)NC(=O)[C@H]2CCCN2C(=O)[C@H](NC(=O)[C@@H](NC(=O)[C@@H](NC(=O)[C@H](NC(=O)CC[C@H](C)CC)C(C)C)[C@@H](C)O)C(C)C)C(C)C)[C@@H](C)CC)[C@@H](C)OC(=O)[C@H](C(C)C)NC1=O [Compound 16, [(4R)-MeHex^14]-KF]
valueRelationSign: ≥
CC50 / µM: 6.77
